- Test system: OVCAR-3 ovarian
- method_description: NCI-60 one-dose screen, 48 h (100 = growth as untreated, 0 = no growth, -100 = all killed)
- experimental_setup: 10 µM
Compounds without any hit were thinned out: in the full panel of roughly 83,000, 20% have a hit.
Note to self: growth under 30% means T, ties and anything higher get F.

Problem: In the record for `COc1ccc(Cl)cc1Nc1nc(C(F)(F)F)ccc1C(=O)N/N=C/c1cc(OC)c(OC)c(OC)c1` , is growth less than 30%?
Result: T

Problem: In the record for `COc1cc(-c2nn(-c3cccc(NC(=O)CN4CCOCC4)c3)cc2-c2cccnc2)ccc1Cl` , is growth less than 30%?
Result: F

Problem: In the record for `Oc1ccc(-c2[nH]c3ccccc3c2-c2nc3ccccc3o2)cc1` , is growth less than 30%?
Result: F

Problem: In the record for `CN(C)CCOc1ccc(-c2nc3sccn3c2-c2ccnc(S(C)(=O)=O)n2)cc1` , is growth less than 30%?
Result: F

Problem: In the record for `Clc1nc2ccccc2cc1Cn1nnc(Cc2ccccc2)n1` , is growth less than 30%?
Result: F

Problem: In the record for `CCN(CC)CCN1c2nc3ccccc3cc2Sc2cc3ccccc3nc21` , is growth less than 30%?
Result: T

Problem: In the record for CCCCC(CC)CN=C(N)NC(N)=NCCCCCCN=C(N)NC(N)=NCC(CC)CCCC (centres undefined) , is growth less than 30%?
Result: T

Problem: In the record for CC[C@@H](C(=O)[C@@H](C)[C@@H](O)[C@H](C)[C@@H]1O[C@@H]([C@@H](CC)C(=O)O)CC[C@@H]1C)C1O[C@]2(C=CC(=O)[C@]3(CC[C@@](C)([C@H]4CC[C@](O)(CC)[C@H](C)O4)O3)O2)[C@H](C)C[C@@H]1C (some centres undefined) , is growth less than 30%?
Result: T

Problem: In the record for `Cc1c2c[n+](C(C)C)ccc2c(C)c2c1[nH]c1ccccc12` , is growth less than 30%?
Result: T

Problem: In the record for `Oc1cccc(-c2nc3sccn3c2-c2ccncn2)c1` , is growth less than 30%?
Result: F

Problem: In the record for `CC(C)(C)OC(=O)CN1CCc2c(sc3ncnc(N/N=C/c4ccccc4Br)c23)C1` , is growth less than 30%?
Result: F

Problem: In the record for `CN1CCN(CCCn2c(=O)c3sc4ncccc4c3n3nnc(-c4ccccc4)c23)CC1` , is growth less than 30%?
Result: T

Problem: In the record for `CCc1c2c(nc3ccc(OC(=O)N4CCC(N5CCCCC5)CC4)cc13)-c1cc3c(c(=O)n1C2)COC(=O)[C@]3(O)CC` , is growth less than 30%?
Result: F

Problem: In the record for `CC(=O)N[C@H](C(=O)N[C@@H](CCCNC(=N)N)C(=O)N[C@@H](CCCCN)C(=O)N[C@@H](CCCNC(=N)N)C(=O)N[C@]1(C)CCC/C=C\CCC[C@@](C)(C(=O)N[C@@H](CC(C)C)C(=O)N[C@@H](CC(C)C)C(=O)N[C@@H](CCC(N)=O)C(=O)N[C@@H](CCC(=O)O)C(=O)N[C@@H](CCCNC(=N)N)C(=O)N[C@@H](CCC(=O)O)C(=O)N[C@@H](CC(C)C)C(=O)N[C@H](C(=O)N[C@@H](CCC(=O)O)C(N)=O)C(C)C)NC(=O)[C@H](CCCNC(=N)N)NC(=O)[C@H](CC(C)C)NC1=O)C(C)C` , is growth less than 30%?
Result: F

Problem: In the record for NC(N)=N/N=C(\c1ccccc1)C(O)c1ccccc1 (centres undefined) , is growth less than 30%?
Result: F

Problem: In the record for `COc1cc(C(=O)/C=C/c2c[nH]c3ccccc23)cc(OC)c1OC` , is growth less than 30%?
Result: T

Problem: In the record for `CSc1nc2c(c(=O)n1C)CN(Cc1ccccc1)C(=O)CN2` , is growth less than 30%?
Result: F

Problem: In the record for `O=C(CCNC(=O)c1nc(-c2ccccc2)n(-c2ccc(Cl)cc2)n1)NO` , is growth less than 30%?
Result: F

Problem: In the record for `COc1cc(-c2nn(-c3cccc(NC(=O)NCCNC(=O)c4cccc(C(F)(F)F)c4)c3)cc2-c2ccncc2)ccc1Cl` , is growth less than 30%?
Result: T
